molecular target: human CD3 (human, UniProt P07766 23-207; P04234 22-171; P09693 23-182); experiment: cell-based or functional assay
Sequence (P07766 23-207, chain 1 of 3): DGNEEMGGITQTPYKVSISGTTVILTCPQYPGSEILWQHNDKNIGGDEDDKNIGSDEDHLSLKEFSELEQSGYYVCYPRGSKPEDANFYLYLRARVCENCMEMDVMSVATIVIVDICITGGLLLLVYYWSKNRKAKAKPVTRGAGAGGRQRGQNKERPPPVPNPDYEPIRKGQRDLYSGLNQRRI
Sequence (P04234 22-171, chain 2 of 3): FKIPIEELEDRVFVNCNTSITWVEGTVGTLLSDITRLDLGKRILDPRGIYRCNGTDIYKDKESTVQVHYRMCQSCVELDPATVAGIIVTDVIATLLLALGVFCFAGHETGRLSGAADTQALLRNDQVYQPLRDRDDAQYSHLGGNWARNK
Sequence (P09693 23-182, chain 3 of 3): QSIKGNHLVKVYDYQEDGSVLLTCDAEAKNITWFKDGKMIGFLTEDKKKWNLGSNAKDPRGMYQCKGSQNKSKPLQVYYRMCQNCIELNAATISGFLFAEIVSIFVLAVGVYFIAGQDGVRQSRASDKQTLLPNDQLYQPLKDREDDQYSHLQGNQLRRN
Measured EC50_Fold change (Jurkat-NFAT-luciferase activation, normalized to ch40-C12-C10-E9), listed per entry.
measurementType: EC50_Fold change (Jurkat-NFAT-luciferase activation, normalized to ch40-C12-C10-E9)

>>> readoutvalue("hu40E9-L2H3-D105E.H (antibody, V domains shown) VH: EVQLVQSGAEVKKPGSSVKVSCKASGYTFSSYVIHWVRQAPGQGLEWMGYINPYNDVIKYNEKFKGRVTLTSDKSTSTAYMELSSLRSEDTAVYYCARDSYYSYEGFAYWGQGTLVTVSS VL: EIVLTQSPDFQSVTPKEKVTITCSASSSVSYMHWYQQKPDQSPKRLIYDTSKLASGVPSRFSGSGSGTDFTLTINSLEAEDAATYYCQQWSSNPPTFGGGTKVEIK")
"3.77 fold"
>>> readoutvalue("hu40E9-L2H3-Y54G.H (antibody, V domains shown) VH: EVQLVQSGAEVKKPGSSVKVSCKASGYTFSSYVIHWVRQAPGQGLEWMGYINPGNDVIKYNEKFKGRVTLTSDKSTSTAYMELSSLRSEDTAVYYCARDSYYSYDGFAYWGQGTLVTVSS VL: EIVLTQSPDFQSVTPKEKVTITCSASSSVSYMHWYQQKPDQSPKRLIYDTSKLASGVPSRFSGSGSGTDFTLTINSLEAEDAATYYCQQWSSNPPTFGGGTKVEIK")
"1.06 fold"
>>> readoutvalue("hu40E9-L2H4 (antibody, V domains shown, humanized 40-C12-C10-E9) VH: EVQLVQSGAEVKKPGSSVKVSCKASGYTFSSYVIHWVRQAPGQGLEWIGYINPYNDVIKYNEKFKGRATLTSDKSTSTAYMELSSLRSEDTAVYYCARDSYYSYDGFAYWGQGTLVTVSS VL: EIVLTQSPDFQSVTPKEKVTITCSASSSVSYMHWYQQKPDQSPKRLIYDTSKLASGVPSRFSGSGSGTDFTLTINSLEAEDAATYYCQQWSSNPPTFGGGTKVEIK")
"0.8 fold"
>>> readoutvalue("hu40E9-L2H2 (antibody, V domains shown, humanized 40-C12-C10-E9) VH: EVQLVQSGAEVKKPGSSVKVSCKASGYTFSSYVIHWVRQAPGQGLEWMGYINPYNDVIKYNEKFKGRVTITADKSTSTAYMELSSLRSEDTAVYYCARDSYYSYDGFAYWGQGTLVTVSS VL: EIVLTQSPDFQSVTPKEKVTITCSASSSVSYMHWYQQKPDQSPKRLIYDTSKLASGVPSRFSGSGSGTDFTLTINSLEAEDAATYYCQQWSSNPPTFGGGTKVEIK")
"2.14 fold"
>>> readoutvalue("ch40-C12-C10-E9 (antibody, V domains shown) VH: EVQLQLSGPELVKPGASVKMSCKASGYTFSSYVIHWVKQKPGQGLEWIGYINPYNDVIKYNEKFKGKATLTSDKSSSTAYMELSSLTSEDSAVYYCARDSYYSYDGFAYWGQGTLVTVSA VL: QIVLTQSPAIMSASPGEKVTMTCSASSSVSYMHWYQQKSGTSPKRWIYDTSKLASGVPARFSGSGSGTSYSLTISSMEAEDAATYYCQQWSSNPPTFGGGTKVEIK")
"1 fold"

# credit: patent US20250223358A1
